# target: human FFA2R (Homo sapiens, UniProt O15552)
# Sequence (O15552 whole entry): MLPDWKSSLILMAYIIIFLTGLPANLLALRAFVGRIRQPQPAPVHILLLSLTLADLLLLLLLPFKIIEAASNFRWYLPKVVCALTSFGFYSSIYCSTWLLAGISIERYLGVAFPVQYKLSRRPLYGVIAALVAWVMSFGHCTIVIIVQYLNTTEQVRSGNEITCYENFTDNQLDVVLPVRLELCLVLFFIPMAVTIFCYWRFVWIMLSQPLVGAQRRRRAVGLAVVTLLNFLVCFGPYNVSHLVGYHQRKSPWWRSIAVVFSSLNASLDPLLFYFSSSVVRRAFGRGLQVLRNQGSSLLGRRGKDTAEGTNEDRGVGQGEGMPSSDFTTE
# method-notes: inhibition of forskolin-induced cAMP, LANCE Ultra TR-FRET, HEK293
parameter-measured: EC50 (µM)
Provide the reading as a plain figure in µM.

## Task Would you kindly share the measured EC50 for CC(=O)CC(=O)O [acetoacetate] ?
## Result 1240
